Source listed as patent US20230331690A1.

# run.description: Persistence over time, liver samples postmortem (Example 18)
# Format: in vivo, mice
# particulars: mouse, liver, oral; 8 mg/kg administered, died at 6 h; read-out: Average results for 3 mice (Table 13, liver)
parameter: concentration at 6 h (ng/g)
Response body: numeric value in ng/g, unit text excluded.

Query (molecule): [2H]C([2H])([2H])C1=C[C@H]2c3c(O)cc(CCCCC)cc3OC(C)(C)[C@@H]2CC1([2H])[2H] [9-CD3-(8-D2)-THC] ; field requested: concentration at 6 h 57.8

# input molecule: CCCCCc1cc(O)c2c(c1)OC(C)(C)[C@@H]1CCC(C)=C[C@@H]21 [THC, Δ-9-tetrahydrocannabinol] ; wanted: its concentration at 6 h 11.1

---

# run.description: Pharmacokinetics, liver samples (Example 17)
# Format: in vivo, mice
# particulars: mouse, liver, po, 5 h after oral gavage administration of THC or THC-d5; label = analyte; read-out: Component in the liver, mouse 1
For each entry below, report its concentration at 5 h value.
I only need the number, in ng/mL, no unit after it.

Param item = CCCCCc1cc(O)c2c(c1)OC(C)(C)[C@@H]1CCC(C)=C[C@@H]21 [THC, Δ-9-tetrahydrocannabinol] ; retrieve measured concentration at 5 h. 1.41

Quick one: concentration at 5 h for [2H]C([2H])([2H])C1=C[C@H]2c3c(O)cc(CCCCC)cc3OC(C)(C)[C@@H]2CC1([2H])[2H] [9-CD3-(8-D2)-THC] ? 5.57

---

# run.description: Persistence over time, liver samples postmortem (Example 18)
# Format: in vivo, mice
# particulars: mouse, liver, oral; 4 mg/kg administered, died at 6 h; read-out: Average results for 3 mice (Table 13, liver)
parameter: concentration at 6 h (ng/g)
Please respond with the number in ng/g and leave the unit unwritten.

Reported concentration at 6 h for [2H]C([2H])([2H])C1=C[C@H]2c3c(O)cc(CCCCC)cc3OC(C)(C)[C@@H]2CC1([2H])[2H] [9-CD3-(8-D2)-THC] : what is it? 16.1

For CCCCCc1cc(O)c2c(c1)OC(C)(C)[C@@H]1CCC(C)=C[C@@H]21 [THC, Δ-9-tetrahydrocannabinol] , what is its reported concentration at 6 h? 11.4

---

# run.description: Persistence over time, liver samples postmortem (Example 18)
# Type: in vivo, mice
# particulars: mouse, liver, oral; 2 mg/kg administered, died at 24 h; number in brackets = mice with a value; read-out: Average results for 3 mice (Table 13, liver)
# Protocol: Blood samples from each mouse were collected at each time point for the pharmacokinetics tests. For 6 h after administrating of all tested drugs, and after testing their WRL on the hot plate, half the mice (n=3) of each group were sacrificed, and the liver and brain of each animal were taken for pharmacokinetics tests. From the remaining mice, blood samples were acquired at 12 h after administration for pharmacokinetics tests. […]
parameter: concentration at 24 h (ng/g)
Kindly provide the numeric value in ng/g only, without the unit symbol.

Need concentration at 24 h, item [2H]C([2H])([2H])C1=C[C@H]2c3c(O)cc(CCCCC)cc3OC(C)(C)[C@@H]2CC1([2H])[2H] [9-CD3-(8-D2)-THC] 0.75

---

# run.description: Pharmacokinetics, liver samples (Example 17)
# Assay type: in vivo, mice
# particulars: mouse, liver, po, 5 h after oral gavage administration, n=3; read-out: average liver concentration
parameter: concentration at 5 h (ng/g)
Write the value in ng/g as a bare number.

Sample CCCCCc1cc(O)c2c(c1)OC(C)(C)[C@@H]1CCC(C)=C[C@@H]21 [THC, Δ-9-tetrahydrocannabinol] — what was its concentration at 5 h? 3.77

Look at this compound and give its reported concentration at 5 h. [2H]C([2H])([2H])C1=C[C@H]2c3c(O)cc(CCCCC)cc3OC(C)(C)[C@@H]2CC1([2H])[2H] [9-CD3-(8-D2)-THC] 5.99

---

# run.description: Pharmacokinetics, blood samples (Example 17)
# particulars: mouse, blood, ip, Component in the blood, mouse 3, 0.5 h after i.p. injection of THC or THC-d5; label = analyte
parameter: concentration at 0.5 h (ng/mL)
Numeric answer only, unit ng/mL assumed.

I have this molecule here, CCCCCc1cc(O)c2c(c1)OC(C)(C)[C@@H]1CCC(C)=C[C@@H]21 [THC, Δ-9-tetrahydrocannabinol] , and I need its recorded concentration at 0.5 h. 49.5

---

# run.description: Pharmacokinetics, blood samples (Example 17)
# particulars: mouse, blood, ip, Component in the blood, mouse 5, 0.5 h after i.p. injection of THC or THC-d5; label = analyte
Please respond with reported concentration at 0.5 h for every item in the list.
The reply should be a number in ng/mL, with the unit left off.

State the recorded concentration at 0.5 h for this entry: CCCCCc1cc(O)c2c(c1)OC(C)(C)[C@@H]1CCC(C)=C[C@@H]21 [THC, Δ-9-tetrahydrocannabinol] 53.8

// lookup concentration at 0.5 h for [2H]C([2H])([2H])C1=C[C@H]2c3c(O)cc(CCCCC)cc3OC(C)(C)[C@@H]2CC1([2H])[2H] [9-CD3-(8-D2)-THC] 74.1

---

# run.description: Persistence over time, blood samples (Example 18)
# Assay type: in vivo, mice
# particulars: mouse, blood, oral; 8 mg/kg administration of THC or THC-d5, Time 0.5 h; label = analyte
What concentration at 0.5 h was measured for each of the following?
Field format: number, assumed ng/mL, no unit text.

Look up concentration at 0.5 h for this molecule: [2H]C([2H])([2H])C1=C[C@H]2c3c(O)cc(CCCCC)cc3OC(C)(C)[C@@H]2CC1([2H])[2H] [9-CD3-(8-D2)-THC] 22.5

Bench note: what concentration at 0.5 h did CCCCCc1cc(O)c2c(c1)OC(C)(C)[C@@H]1CCC(C)=C[C@@H]21 [THC, Δ-9-tetrahydrocannabinol] show? 14.3

---

# run.description: Pharmacokinetics, liver samples (Example 17)
# Type: in vivo, mice
# particulars: mouse, liver, po, 5 h after oral gavage administration of THC or THC-d5; label = analyte; read-out: Component in the liver, mouse 2
parameter: concentration at 5 h (ng/mL)
Expressed in ng/mL, but write only the number.

# input compound: CCCCCc1cc(O)c2c(c1)OC(C)(C)[C@@H]1CCC(C)=C[C@@H]21 [THC, Δ-9-tetrahydrocannabinol] ; wanted: its concentration at 5 h 4.94

Fill in the blank: the reported concentration at 5 h of [2H]C([2H])([2H])C1=C[C@H]2c3c(O)cc(CCCCC)cc3OC(C)(C)[C@@H]2CC1([2H])[2H] [9-CD3-(8-D2)-THC] is ____. 6.28

---

# run.description: Persistence over time, blood samples (Example 18)
# Format: in vivo, mice
# particulars: mouse, blood, oral; 8 mg/kg administration, Time 12 h (3 mice); label = analyte
parameter: concentration at 12 h (ng/mL)
Field format: number, assumed ng/mL, no unit text.

Requested read-out: concentration at 12 h. Entry: CCCCCc1cc(O)c2c(c1)OC(C)(C)[C@@H]1CCC(C)=C[C@@H]21 [THC, Δ-9-tetrahydrocannabinol] 0.81

---

# run.description: Persistence over time, brain samples postmortem (Example 18)
# Format: in vivo, mice
# particulars: mouse, brain, oral; 8 mg/kg administered, died at 6 h; number in brackets = mice with a value; read-out: Average results for 3 mice - brain samples
Answer each item with its documented concentration at 6 h.
Respond with the bare value in ng/g.

Name the reported concentration at 6 h value associated with the compound [2H]C([2H])([2H])C1=C[C@H]2c3c(O)cc(CCCCC)cc3OC(C)(C)[C@@H]2CC1([2H])[2H] [9-CD3-(8-D2)-THC] 48

Item under review: CCCCCc1cc(O)c2c(c1)OC(C)(C)[C@@H]1CCC(C)=C[C@@H]21 [THC, Δ-9-tetrahydrocannabinol] . Reported concentration at 6 h? 16.9

---

# run.description: Persistence over time, liver samples postmortem (Example 18)
# Assay type: in vivo, mice
# particulars: mouse, liver, oral; 2 mg/kg administered, died at 6 h; read-out: Average results for 3 mice (Table 13, liver)
Assignment: determine reported concentration at 6 h for the given molecules.
Write the number in ng/g without appending the unit.

Would you kindly share the measured concentration at 6 h for CCCCCc1cc(O)c2c(c1)OC(C)(C)[C@@H]1CCC(C)=C[C@@H]21 [THC, Δ-9-tetrahydrocannabinol] ? 9.18

Record request: concentration at 6 h value, item [2H]C([2H])([2H])C1=C[C@H]2c3c(O)cc(CCCCC)cc3OC(C)(C)[C@@H]2CC1([2H])[2H] [9-CD3-(8-D2)-THC] 3.31

---

# run.description: Pharmacokinetics, blood samples (Example 17)
# particulars: mouse, blood, ip, Component in the blood, Average, 0.5 h after i.p. injection of THC or THC-d5; label = analyte; n=6 (THC-d5 n=5)
# Method: The pharmacokinetics of 9-CD3-(8-D2)-THC compared to natural THC was evaluated using both intraperitoneal i.p. injection and an oral gavage administration for each material. The mice were divided into four groups containing 6 mice (24 mice total). For each group of mice, a blood sample was withdrawn at baseline (t=0), and half-hour intervals (t=0.5, 2 and 5 h) after administration of the drug. […]
parameter: concentration at 0.5 h (ng/mL)
Your answer is read as ng/mL, so omit the unit and give the number.

What value of concentration at 0.5 h has been reported for the following molecule? CCCCCc1cc(O)c2c(c1)OC(C)(C)[C@@H]1CCC(C)=C[C@@H]21 [THC, Δ-9-tetrahydrocannabinol] 63.4

Any idea what its concentration at 0.5 h is? The molecule is [2H]C([2H])([2H])C1=C[C@H]2c3c(O)cc(CCCCC)cc3OC(C)(C)[C@@H]2CC1([2H])[2H] [9-CD3-(8-D2)-THC] 110
